Cited source: patent US20080312435A1

assay.readout: melting point

CCn1c(C)c(C(C)C)s/c1=N\C(=O)c1cccc(C(F)(F)F)c1F	64 to 66 °C

Would you mind giving melting point for every compound in the list below?
1. Cc1cccc(Cl)c1C(=O)/N=c1\sc(C(C)(C)C)c(C)n1CC1CC1
2. O=C(/N=c1\ccccn1CC1CC1)c1cccc(C(F)(F)F)c1
3. Cc1ccc(F)cc1C(=O)/N=c1\cc(C(C)(C)C)n(C)n1CC1CC1
4. Cc1cc/c(=N\C(=O)c2cccc(C(F)(F)F)c2F)n(CC2CC2)c1

Solution:
1. 159 to 160 °C
2. 105.5 to 106.5 °C
3. 161 to 162 °C
4. 118 to 120 °C
